B1: RHOBTB2 (parent)
chain: LYTGELDENERDLMHIAHIAELLE

# Variants of: B1
# procedure.text: protein stability index of a GFP-peptide fusion (GPS, HEK-293T) (PSI 1-6); higher = more stable;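 further: lentivirally expressed fusions sorted by FACS into six bins by GFP to DsRed ratio, PSI derived from sequencing read proportions per bin multiplied by bin number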
# condition.info: c terminus: a fixed tail appended
parameter: protein stability index
Kindly provide the number alone.

Please review the entries below; each comes with its answer.
chain	protein stability index
LYTGVLDENERDLMHIAHIAELLE [E5V]	1.81
LYTGEPDENERDLMHIAHIAELLE [L6P]	2.95
LYTGELDFNERDLMHIAHIAELLE [E8F]	1.96
LYTGELDEQERDLMHIAHIAELLE [N9Q]	2.25
LYTGELDENERDLMHIMHIAELLE [A17M]	1.41
LYTGELLENERDLMHIAHIAELLE [D7L]	3.31

We next turn to a different variant, shown below.
### Prompt Please report the measured protein stability index for LYTGELDENERDLMHWAHIAELLE [I16W]
### Response 3.16

The reported measurements were obtained from the supplement of paper PMC10567573.
